Target: T1, human Trop-2-hFc (Homo sapiens, UniProt P09758)
T1 construct: Monomeric Trop-2 extracellular domain prepared from papain digestion of Trop-2-Fc fusion protein
T1 sequence (P09758 27-274 limits assumed): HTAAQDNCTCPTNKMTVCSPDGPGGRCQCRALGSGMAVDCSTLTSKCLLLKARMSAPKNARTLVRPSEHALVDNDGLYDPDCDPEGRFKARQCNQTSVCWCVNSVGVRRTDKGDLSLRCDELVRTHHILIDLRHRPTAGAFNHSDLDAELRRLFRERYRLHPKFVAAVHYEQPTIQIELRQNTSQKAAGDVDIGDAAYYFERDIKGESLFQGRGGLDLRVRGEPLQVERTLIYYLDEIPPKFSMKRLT
Assay: Biacore SPR affinity of chimeric and humanized 7E6 Fab, human Trop-2
Type: binding
Conditions: recombinant Fab fragments injected over captured human Trop-2-hFc
measured.endpoint: ka (M⁻¹ s⁻¹)
I only need the number, in M⁻¹ s⁻¹, no unit after it.

Qu. Please report ka for the following molecule: h7E6_SVGL: humanized anti-Trop-2 antibody, VL SEQ ID NO: 6, VH SEQ ID NO: 5 (antibody, V domains shown) VH: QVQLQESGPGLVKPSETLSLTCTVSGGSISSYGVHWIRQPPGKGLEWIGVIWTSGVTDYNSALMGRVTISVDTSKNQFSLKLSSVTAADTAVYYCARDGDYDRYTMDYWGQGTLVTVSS VL: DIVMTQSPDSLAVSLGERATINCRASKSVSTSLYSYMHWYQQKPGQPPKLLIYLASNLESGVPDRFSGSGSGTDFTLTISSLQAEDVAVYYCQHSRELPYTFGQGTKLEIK
Ans. 131000
